The reported numbers originate from paper PMC11822212.

Tested on: MKL-2 cells (VP-MCC)
Test: qHTS cell viability (CellTiter-Glo, 72 h; primary and follow-up small molecule screen)
Format: cell-based, human
Details: NPC library, 8-point DRC, area under dose-response curve
Counter-ions that a name gives are not always drawn.
Kind request: treat 400 as inclusive, so MKL2_AUC at 400 or higher is true (1), anything lower is false (0).

Some solved cases for reference:
compound: COc1ccc(CCN(C)CCCC(C#N)(c2cc(OC)c(OC)c(OC)c2)C(C)C)cc1OC (stereo not drawn) [Gallopamil hydrochloride]
class label: true (1)
--
compound: Oc1ccc(C2CNCCc3c2cc(O)c(O)c3Cl)cc1 (stereo not drawn) [Fenoldopam]
class label: true (1)
--
compound: CSc1ccc2c(c1)N(CCC1CCCCN1C)c1ccccc1S2 (stereo not drawn) [Thioridazine]
class label: false (0)

Lookup: Determine whether this compound has MKL2_AUC no lower than 400: O=S1(=O)OC(c2ccc(O)cc2)(c2ccc(O)cc2)c2ccccc21 [Phenol red]
Found: true (1)
